System: SARS-CoV-2 (USA-WA1/2020 variant)
Test: Virus CPE assay in Vero-E6 cells, USA-WA1/2020
Type: cell-based
Conditions: USA-WA1/2020, Vero-E6, 4 days; read-out: EC50, inhibition of CPE

{"columns": ["COMPOUND", "EC50"],
 "data": [
  ["CC(C)C[C@H](NC(=O)OCc1ccccc1)C(=O)N[C@@H](C[C@@H]1CCNC1=O)C(O)S(=O)(=O)O (stereo partly shown) [GC-376]", "3.3 µM"]
]}
